Assay system: native, highly purified SAP2 preparation (Candida albicans, UniProt P0CS83 57-398)
Sequence (P0CS83 57-398 limits assumed): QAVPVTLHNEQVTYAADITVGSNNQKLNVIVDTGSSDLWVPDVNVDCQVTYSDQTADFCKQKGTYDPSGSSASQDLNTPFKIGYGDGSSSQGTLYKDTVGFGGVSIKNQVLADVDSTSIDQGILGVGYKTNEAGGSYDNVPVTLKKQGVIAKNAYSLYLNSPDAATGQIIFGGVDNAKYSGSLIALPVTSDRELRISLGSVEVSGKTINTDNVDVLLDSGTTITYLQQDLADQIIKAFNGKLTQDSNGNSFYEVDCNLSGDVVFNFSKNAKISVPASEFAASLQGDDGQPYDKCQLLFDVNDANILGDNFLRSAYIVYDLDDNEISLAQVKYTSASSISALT
Procedure details: cell-based or functional assay
Measured quantity: ΔOD/ml/min (BSA degradation, proteinase enzyme assay)

Worked cases, ΔOD/ml/min (BSA degradation, proteinase enzyme assay) given:
- Binder: "ADR4-7 (other) EVQLLESGGGLVQPGGSLRLSCAASGYSVTYQNMAWVRQAPGKGLEWVSTITVPNGSTYYADSVKGRFTISRDNSKNTLYLQMNSLRAEDTAVYYCAGLGEVLRDGNANVQFWGQGTLVTVSS"
  Observed measurement: "0.7 ΔOD/ml/min"
- Binder: "ADR4-10 (other) EVQLLESGGGLVQPGGSLRLSCAASGVSVSAYTMSWVRQAPGKGLEWVSAILKKNGSTYYADSVKGRFTISRDNSKNTLYLQMNSLRAEDTAVYYCAGRPSVTFGGPGKRYDYHFQYWGQGTLVTVSS"
  Observed measurement: "0.83 ΔOD/ml/min"

ΔOD/ml/min (BSA degradation, proteinase enzyme assay) recorded for this binder, ADR4-3 (other) EVQLLESGGGLVQPGGSLRLSCAASGFTFAQYRMAWVRQAPGKGLEWVSQINAQGTQTGYADSVKGRFTISRDNSKNTLYLQMNSLRAEDTAVYYCAKWVGGARYTFDYWGQGTLVTVSS , is 0.66 ΔOD/ml/min
